System: MLK3
Details: concentration: 1 μM, replicates: in singlicate; n = 1;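 also: KINOMEscan kinase panel screen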
Criterion: %Inh meeting or surpassing 10%. Met: condition met. Not met: condition not met.

The examples below pair each entry with its known result.
1. COc1ccc(NC(=O)c2ccc(-c3cc(-c4nnc(C)o4)ccc3C)cc2)cc1 condition met
2. COc1cc2c(Nc3cccc(NC(=O)c4ccccc4)c3)ncnc2cc1OCCCN1CCOCC1 condition met
3. CN1c2ccc(-c3ccc(C(=O)NCCO)cc3)cc2-c2[nH]ncc2S1(=O)=O condition met
4. O=C(NCCCN1CCCC1=O)c1cnc(NCc2cc(Cl)ccc2Cl)nc1NC1CCNCC1 condition not met
5. O=c1cc(N2CCOCC2)nc2n(Cc3cccc(Cl)c3)ccn12 condition not met

Consider the record given below.
Reported %Inh at or above 10%? CC(C)(C)c1ccc(-n2cnc3c(N)ncnc32)cc1
condition not met

* * *

Test system: BMPR1A
Settings: concentration: 1 μM, replicates: in singlicate; n = 1
Consider the following compounds; for each one, report its %Inh.

COMPOUND	%Inh
CS(=O)(=O)CCNCc1ccc(-c2ccc3ncnc(Nc4ccc(OCc5ccccc5)c(Cl)c4)c3c2)o1.Cl	0%
CSc1nn2c(=O)cc(N3CCOCC3)nc2n1Cc1cccc(Cl)c1Cl	19%
CNc1nccc(-c2c(-c3ccc(F)cc3)ncn2C2CCN(C)CC2)n1	0%

I would be grateful if you could provide %Inh for each of the following entries.
1. CC(C)(C)OC(=O)NC1CCCN(c2cc(-c3ccc4c(N)n[nH]c4c3)nc(N)n2)C1 (centres unmarked)
2. Cl.Cl.c1ccc(-c2cc3ccncc3cc2OC2CCNCC2)cc1

1. 0%
2. 0%

* * *

System: CDK9
Details: concentration: 1 μM, replicates: in singlicate; n = 1
PROPERTY_NAME: %Inh
Please don't drop the unit; write it after the number.

For each of the molecules below, state %Inh.
1. O=c1cc(N2CCOCC2)nc2n(Cc3cccc(Cl)c3)ccn12
2. Nc1nc(-c2ccccn2)c(-c2ccnc3ccccc23)s1
3. CCc1nc(-c2cccc(N(C)S(=O)(=O)c3ccccc3)c2)c(-c2ccnc(Nc3ccc(N4CCN(C(C)=O)CC4)nc3)n2)s1
4. O=C(Nc1n[nH]c2nc(-c3ccco3)c(Br)cc12)c1ccc(CN2CCCC2)cc1.O=C(O)[C@H](O)[C@@H](O)C(=O)O
5. Cl.Fc1ccccc1COc1ccc(Nc2ncnc3ccc(-c4nnc(C(F)(F)F)o4)cc23)cc1Cl
6. CS(=O)(=O)CCNCc1ccc(-c2ccc3ncnc(Nc4ccc(OCc5ccccc5)c(Cl)c4)c3c2)o1.Cl
7. C[C@@H]1CCN(C(=O)CO)C[C@@H]1N(C)c1ncnc2[nH]ccc12
8. CCC(CC)(CC)n1cnc2c(N)ncnc21

1. 0%
2. 0%
3. 15%
4. 0%
5. 0%
6. 0%
7. 9%
8. 0%

* * *

System: SGK
Conditions: concentration: 1 μM, replicates: in singlicate; n = 1
PROPERTY_NAME: %Inh (%)
One number for each entry, in %.

A selection of reference data follows.
1. Cl.Cn1ccc(-c2cccc(Nc3ccnc4cc(-c5nccs5)ccc34)c2)n1 0
2. COc1ccc(NC(=O)Nc2ccc(C)c(-c3ccc(C(=O)Nc4ccncc4)cc3)c2)cc1 0
3. CCc1nc(-c2cccc(C)c2)c(-c2ccnc(NC(=O)c3ccccc3)c2)s1 13
4. FC(F)(F)c1ccc(-c2cc(-c3c[nH]nc3-c3ccccn3)ccn2)cc1 0
5. O=c1cc(N2CCOCC2)nc2n(Cc3cccc(Cl)c3)ccn12 0

Go through the items and report each one's %Inh.
1. Oc1ccc2ncnc(Nc3ccc(OCc4ccccc4)cc3)c2c1
2. OCCOCCn1ccc2ncnc(Nc3ccc(Oc4cccc(Cl)c4)c(Cl)c3)c21
3. Cn1ccc2ncnc(Nc3ccc(Oc4cccc(Cl)c4)c(Cl)c3)c21

1. 6
2. 0
3. 0

Using known records, supply %Inh for Nc1nc(-c2ccc3c(N)n[nH]c3c2)cc(N2CCCCC2)n1
0

Sourced from paper PMC5540273
